Where these numbers come from: patent US20260053834A1

Tested on: LAPC4 prostate cancer cells, which express the AKT1 E17K allele
measurement description: Antiproliferative effects in LAPC4 cells (CellTiter Glo, 72 h)
Format: cell-based
settings: Homo sapiens, LAPC4, 72 h, read-out: LAPC4 proliferation IC50: GeoMean IC50
Listed here: items and their measured IC50.

Cc1cc2nc(-c3cccnc3N)n(-c3ccc4c(c3)CC[C@@H]4NC(=O)c3ccc(O)c(C=O)c3)c2nc1-n1cccn1 ... 100 to 2000 nM
CN(C)Cc1cc(C(=O)N[C@H]2CCc3cc(-n4c(-c5cccnc5N)nc5ccc(-n6cccn6)nc54)ccc32)cc(C=O)c1O ... ≥ 2000 nM
Nc1ncccc1-c1nc2ccc(-n3cccn3)nc2n1-c1ccc2c(c1)CC[C@@H]2NC(=O)c1cc(C=O)c(O)c2ncoc12 ... 100 to 2000 nM
CC(=O)Nc1ccc(C(=O)N[C@H]2CCc3cc(-n4c(-c5cccnc5N)nc5ccc(-c6ccccc6)nc54)ccc32)cc1C=O ... < 10 nM
N#Cc1cc(O)c(C=O)cc1C(=O)N[C@H]1CCc2cc(-n3c(-c4cccnc4N)nc4ccc(-n5cccn5)nc43)ccc21 ... ≥ 2000 nM

As a next step, examine the compound that follows.
// IC50 value for `CCc1ccc2nc(-c3cccnc3N)n(-c3ccc4c(c3)CC[C@@H]4NC(=O)c3ccc(O)c(C=O)c3)c2n1` : 100 to 2000 nM
